System: Bacillus cereus
Protocol text: Minimum inhibitory concentration (MIC) preventing growth of Bacillus cereus
Format: functional
# key: entry, value: MIC

- Compound: "CC1(N)CN(c2nc3c(cc2F)c(=O)c(C(=O)O)cn3-c2ccc(F)cc2F)C1"
  Tested on: "Bacillus cereus"
  Limit operator: "="
  MIC (µg/mL): 0.12
- Compound: "NC(=O)C1CN(c2c(F)cc3c(=O)c(C(=O)O)cn(C4CC4)c3c2F)C1"
  Tested on: "Bacillus cereus"
  Limit operator: "="
  MIC (µg/mL): 0.25
- Compound: "O=C(O)c1cn(C2CC2)c2c(F)c(N3CC(C(=O)O)C3)c(F)cc2c1=O"
  Tested on: "Bacillus cereus"
  Limit operator: ">"
  MIC (µg/mL): 16
- Compound: "NC1CN(c2c(F)cc3c(=O)c(C(=O)O)cn(-c4ccc(F)cc4F)c3c2Cl)C1"
  Tested on: "Bacillus cereus"
  Limit operator: "="
  MIC (µg/mL): 0.015
- Compound: "CNC1(C)CN(c2cc3c(cc2F)c(=O)c(C(=O)O)cn3C2CC2)C1"
  Tested on: "Bacillus cereus"
  Limit operator: "="
  MIC (µg/mL): 0.25
- Compound: "CNC1CN(c2c(F)cc3c(=O)c(C(=O)O)cn(-c4ccc(F)cc4F)c3c2Cl)C1"
  Tested on: "Bacillus cereus"
  Limit operator: "="
  MIC (µg/mL): 0.06
- Compound: "Nc1c(F)c(N2CC(O)C2)c(F)c2c1c(=O)c(C(=O)O)cn2C1CC1"
  Tested on: "Bacillus cereus"
  Limit operator: "="
  MIC (µg/mL): 0.015
- Compound: "O=C(O)c1cn(C2CC2)c2cc(N3CC(O)C3)c(F)cc2c1=O"
  Tested on: "Bacillus cereus"
  Limit operator: "="
  MIC (µg/mL): 0.12
- Compound: "CC1(N)CN(c2c(F)cc3c(=O)c4c(=O)[nH]sc4n(C4CC4)c3c2F)C1"
  Tested on: "Bacillus cereus"
  Limit operator: "="
  MIC (µg/mL): 0.12
- Compound: "CC1COc2c(N3CC(C)(N)C3)c(F)cc3c(=O)c(C(=O)O)cn1c23 (stereo unspecified)"
  Tested on: "Bacillus cereus"
  Limit operator: "="
  MIC (µg/mL): 0.5
- Compound: "CC1(N)CN(c2nc3c(cc2F)c(=O)c(C(=O)O)cn3C(C)(C)C)C1"
  Tested on: "Bacillus cereus"
  Limit operator: "="
  MIC (µg/mL): 0.12
- Compound: "CNC1CN(c2c(F)cc3c(=O)c(C(=O)O)cn(C4CC4)c3c2F)C1"
  Tested on: "Bacillus cereus"
  Limit operator: "="
  MIC (µg/mL): 0.25
- Compound: "CCn1cc(C(=O)O)c(=O)c2cc(F)c(N3CC(C)(N)C3)c(Cl)c21"
  Tested on: "Bacillus cereus"
  Limit operator: "="
  MIC (µg/mL): 0.25
- Compound: "CNC1(C)CN(c2nc3c(cc2F)c(=O)c(C(=O)O)cn3C(C)(C)C)C1"
  Tested on: "Bacillus cereus"
  Limit operator: "="
  MIC (µg/mL): 0.06
- Compound: "NC1CN(c2c(F)cc3c(=O)c(C(=O)O)cn(C4CC4)c3c2F)C1"
  Tested on: "Bacillus cereus"
  Limit operator: "="
  MIC (µg/mL): 0.12
- Compound: "CCNCC1(C)CN(c2cc3c(cc2F)c(=O)c(C(=O)O)cn3C2CC2)C1"
  Tested on: "Bacillus cereus"
  Limit operator: "="
  MIC (µg/mL): 0.12
- Compound: "CCNC1CN(c2cc3c(cc2F)c(=O)c2c(=O)[nH]sc2n3C2CC2)C1"
  Tested on: "Bacillus cereus"
  Limit operator: "="
  MIC (µg/mL): 0.12
- Compound: "CN(C)C1CN(c2cc3c(cc2F)c(=O)c(C(=O)O)cn3C2CC2)C1"
  Tested on: "Bacillus cereus"
  Limit operator: "="
  MIC (µg/mL): 0.12
- Compound: "CNC1CN(c2cc3c(cc2F)c(=O)c2c(=O)[nH]sc2n3C2CC2)C1"
  Tested on: "Bacillus cereus"
  Limit operator: "="
  MIC (µg/mL): 0.12
- Compound: "CC1(N)CN(c2c(F)cc3c(=O)c(C(=O)O)cn(-c4ccc(F)cc4)c3c2Cl)C1"
  Tested on: "Bacillus cereus"
  Limit operator: "="
  MIC (µg/mL): 0.06
- Compound: "CC1(N)CN(c2c(F)cc3c(=O)c(C(=O)O)cn(-c4ccc(F)cc4F)c3c2Cl)C1"
  Tested on: "Bacillus cereus"
  Limit operator: "="
  MIC (µg/mL): 0.06
- Compound: "NCC1CN(c2cc3c(cc2F)c(=O)c(C(=O)O)cn3C2CC2)C1"
  Tested on: "Bacillus cereus"
  Limit operator: "="
  MIC (µg/mL): 0.25
- Compound: "CC1(N)CN(c2nc3c(cc2F)c(=O)c(C(=O)O)cn3CCF)C1"
  Tested on: "Bacillus cereus"
  Limit operator: "="
  MIC (µg/mL): 0.5
- Compound: "Nc1c(F)c(N2CC(N)C2)c(F)c2c1c(=O)c(C(=O)O)cn2-c1ccc(F)cc1F"
  Tested on: "Bacillus cereus"
  Limit operator: "="
  MIC (µg/mL): 0.06
- Compound: "CC1(N)CN(c2cc3c(cc2F)c(=O)c(C(=O)O)cn3CCF)C1"
  Tested on: "Bacillus cereus"
  Limit operator: "="
  MIC (µg/mL): 1
- Compound: "CC1(N)CN(c2c(F)cc3c(=O)c(C(=O)O)cn(C4CC4)c3c2Cl)C1"
  Tested on: "Bacillus cereus"
  Limit operator: "="
  MIC (µg/mL): 0.06
- Compound: "CN(C)C1CN(c2cc3c(cc2F)c(=O)c2c(=O)[nH]sc2n3C2CC2)C1"
  Tested on: "Bacillus cereus"
  Limit operator: "="
  MIC (µg/mL): 0.12
- Compound: "CN(C)C1CN(c2c(F)cc3c(=O)c(C(=O)O)cn(C4CC4)c3c2F)C1"
  Tested on: "Bacillus cereus"
  Limit operator: "="
  MIC (µg/mL): 0.25
- Compound: "CC1(CN)CN(c2c(F)cc3c(=O)c(C(=O)O)cn(C4CC4)c3c2F)C1"
  Tested on: "Bacillus cereus"
  Limit operator: "="
  MIC (µg/mL): 0.5
- Compound: "CC1(N)CN(c2c(F)cc3c(=O)c(C(=O)O)cn(CCF)c3c2Cl)C1"
  Tested on: "Bacillus cereus"
  Limit operator: "="
  MIC (µg/mL): 0.5
- Compound: "CC1(O)CN(c2c(F)cc3c(=O)c(C(=O)O)cn(C4CC4)c3c2F)C1"
  Tested on: "Bacillus cereus"
  Limit operator: "="
  MIC (µg/mL): 0.25
- Compound: "NC1CN(c2c(F)cc3c(=O)c(C(=O)O)cn(C4CC4)c3c2Cl)C1"
  Tested on: "Bacillus cereus"
  Limit operator: "="
  MIC (µg/mL): 0.12
- Compound: "CCC1(O)CN(c2c(F)cc3c(=O)c(C(=O)O)cn(C4CC4)c3c2F)C1"
  Tested on: "Bacillus cereus"
  Limit operator: "="
  MIC (µg/mL): 0.5
- Compound: "CCn1cc(C(=O)O)c(=O)c2cc(F)c(N3CC(C)(N)C3)cc21"
  Tested on: "Bacillus cereus"
  Limit operator: "="
  MIC (µg/mL): 1
- Compound: "CC1(N)CN(c2c(F)c(N)c3c(=O)c(C(=O)O)cn(-c4ccc(F)cc4F)c3c2F)C1"
  Tested on: "Bacillus cereus"
  Limit operator: "="
  MIC (µg/mL): 0.06
- Compound: "CC(=O)CN(C)C1(C)CN(c2cc3c(cc2F)c(=O)c(C(=O)O)cn3C2CC2)C1"
  Tested on: "Bacillus cereus"
  Limit operator: "="
  MIC (µg/mL): 0.25
- Compound: "CCC1(O)CN(c2cc3c(cc2F)c(=O)c(C(=O)O)cn3C2CC2)C1"
  Tested on: "Bacillus cereus"
  Limit operator: "="
  MIC (µg/mL): 1
- Compound: "CNC1CN(c2nc3c(cc2F)c(=O)c(C(=O)O)cn3C2CC2)C1"
  Tested on: "Bacillus cereus"
  Limit operator: "="
  MIC (µg/mL): 0.12
- Compound: "CC1(N)CN(c2c(F)c(N)c3c(=O)c(C(=O)O)cn(C4CC4)c3c2F)C1"
  Tested on: "Bacillus cereus"
  Limit operator: "="
  MIC (µg/mL): 0.06
- Compound: "CCNC1CN(c2cc3c(cc2F)c(=O)c(C(=O)O)cn3C2CC2)C1"
  Tested on: "Bacillus cereus"
  Limit operator: "="
  MIC (µg/mL): 0.25
- Compound: "O=C(O)c1cn(C2CC2)c2c(F)c(N3CC(N4CCCC4)C3)c(F)cc2c1=O"
  Tested on: "Bacillus cereus"
  Limit operator: "="
  MIC (µg/mL): 0.12
